Reference source: ChEMBL document CHEMBL3745677

Assay: Terminal half life in cynomolgus monkey at 0.91 mg/kg, iv by LC-MS/MS analysis
Format: ADME, organism-based, Macaca fascicularis
Conditions: in vivo, read-out: beta t1/2 (converted)
MEASURED ATTRIBUTE: half-life (h)
Give a bare numeral; the unit h is implied.

Look at this molecule and give its reported half-life. Cn1cc(C(=O)O)c2ccc(N3CCC(OCc4c(-c5c(Cl)cccc5Cl)noc4C4CC4)CC3)cc21
5

---

Target: Androgen receptor (Homo sapiens)
Sequence (P10275 whole entry): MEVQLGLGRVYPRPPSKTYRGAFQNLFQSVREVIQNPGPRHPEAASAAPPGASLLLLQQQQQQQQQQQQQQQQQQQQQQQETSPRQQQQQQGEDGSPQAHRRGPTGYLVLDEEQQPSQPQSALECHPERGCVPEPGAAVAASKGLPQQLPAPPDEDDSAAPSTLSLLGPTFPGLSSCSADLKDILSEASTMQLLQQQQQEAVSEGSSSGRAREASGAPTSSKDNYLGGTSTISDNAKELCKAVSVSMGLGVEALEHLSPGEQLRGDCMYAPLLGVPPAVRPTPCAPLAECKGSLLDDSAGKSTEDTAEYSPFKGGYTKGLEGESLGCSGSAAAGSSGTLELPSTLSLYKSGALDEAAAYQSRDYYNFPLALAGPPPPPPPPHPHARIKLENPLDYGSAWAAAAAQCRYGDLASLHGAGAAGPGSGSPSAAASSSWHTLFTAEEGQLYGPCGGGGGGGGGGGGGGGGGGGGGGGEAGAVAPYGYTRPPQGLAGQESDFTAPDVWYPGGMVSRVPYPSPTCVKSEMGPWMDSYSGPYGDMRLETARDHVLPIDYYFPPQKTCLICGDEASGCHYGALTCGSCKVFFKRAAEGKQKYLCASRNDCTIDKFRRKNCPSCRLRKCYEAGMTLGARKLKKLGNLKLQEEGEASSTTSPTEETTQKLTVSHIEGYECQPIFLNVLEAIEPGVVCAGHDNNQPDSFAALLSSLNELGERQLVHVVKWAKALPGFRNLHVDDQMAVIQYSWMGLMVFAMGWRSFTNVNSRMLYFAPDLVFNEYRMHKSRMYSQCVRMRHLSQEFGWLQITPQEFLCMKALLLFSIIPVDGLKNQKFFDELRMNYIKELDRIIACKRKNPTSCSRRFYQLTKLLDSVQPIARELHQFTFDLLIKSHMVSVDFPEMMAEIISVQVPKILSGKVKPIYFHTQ
Experiment: Agonist activity at androgen receptor (unknown origin) expressed in HEK293 cells assessed as transcriptional activation
MEASURED ATTRIBUTE: EC50

Look at this molecule and give its reported EC50. Cn1cc(C(=O)O)c2ccc(N3CCC(OCc4c(-c5c(Cl)cccc5Cl)noc4C4CC4)CC3)cc21
> 10 µM
